# System: DU-145 prostate
# ASSAY_EXPLANATION: NCI tumour cell line growth inhibition, 48 h
OBSERVABLE: TGI

> print(dat)
                                   molecule    result
1  CC1=CC(O)C(C(O)(C(F)(F)F)C(F)(F)F)C(C)(C)C1 (stereo not given)   > 10 µM
2  CCCCN=C(N)c1ccc(N2CCCN(c3ccc(C(N)=NCCCC)cc3)CC2)cc1  > 100 µM
3                    CSc1nn(C)cc2nc(C)nc1-2  > 100 µM
4                    COc1cccc2nc3ccccc3nc12  > 100 µM
5          Cc1ccc(NC(=O)Nc2c(Cl)cccc2Cl)cn1   76.6 µM

# TGI lookup, item O=c1c2ccccc2nc(-c2ccccc2Cl)n1-c1nnc(C(F)(F)F)s1 > 100 µM

# TGI lookup, item O=S(=O)(c1ccccc1)N1CN2CN(C1)CN(S(=O)(=O)c1ccccc1)C2 > 100 µM

# TGI lookup, item C[C@@H](NC(=O)c1ncnc(N)c1Cl)c1ncc(C(=O)Nc2cc(C(F)(F)F)c(Cl)cn2)s1 > 82.7 µM

# TGI lookup, item CC(=O)Oc1c(OC(C)C)c(C)c(O[Si](C(C)C)(C(C)C)C(C)C)c2[nH]c3ccccc3c12 > 100 µM

# TGI lookup, item CCOC(=O)c1nc2ccc(C(F)(F)F)cc2nc1Nc1ccc(F)cc1 > 100 µM

* * *

# Test system: MALME-3M melanoma
# ASSAY_EXPLANATION: NCI tumour cell line growth inhibition, 48 h
Recorded TGI for the following molecules

Hi! What's the reported TGI for CCCCCCCCCCCCCCCCCCOc1ccccc1CC(=O)OCC[N+](CC)(CC)CC on MALME-3M melanoma? 3.77 µM

Hi! What's the reported TGI for COc1ccccc1/C=C/C1=C(C)CCC(c2ccccc2OC)C1C (stereo unspecified) on MALME-3M melanoma? > 100 µM

Hi! What's the reported TGI for Nc1cc(S(=O)(=O)O)cc2ccc(S(=O)(=O)O)cc12 on MALME-3M melanoma? > 100 µM

Hi! What's the reported TGI for Cc1nc(-n2nc(-c3ccccc3)cc2-c2ccccc2)sc1C(=O)/C=C/c1ccc(Cl)c(Cl)c1 on MALME-3M melanoma? > 100 µM

Hi! What's the reported TGI for Cc1ccc(/C=C/c2c(C(=O)/C=C/c3ccc(Cl)cc3)c(C)nc3ccccc23)cc1 on MALME-3M melanoma? 3.17 µM

* * *

Recorded GI50 for the following molecules
# Tested on: HS 578T breast
# ASSAY_EXPLANATION: NCI tumour cell line growth inhibition, 48 h

Use these answered entries as a reference point.
> print(dat)
                                smiles.repr  observable   result
1   COc1cc(/C=C/C(=O)N2CCC=CC2=O)cc(OC)c1OC        GI50  5.36 µM
2  O=C(Nc1ccccc1C(F)(F)F)c1ccc(NC2=C(Cl)C(=O)N(Cc3ccccc3)C2=O)cc1        GI50  43.6 µM

# evaluate next
# GI50 lookup, item COc1ccc2nc(-c3ccccc3)cc(Nc3cccc(C(C)=O)c3)c2c1 10.5 µM

* * *

# Tested on: KM12 colon
# ASSAY_EXPLANATION: NCI tumour cell line growth inhibition, 48 h
OBSERVABLE: GI50

> print(dat)
                                smiles.repr  observable   result
1  CCCCCCCCCCCCCCCCCCOc1ccccc1CC(=O)OCC[N+](CC)(CC)CC        GI50  1420 nM
2  O=C(Cc1csc2nc(-c3ccc(Cl)cc3)cn12)N/N=C/c1ccccc1O        GI50  2810 nM
3           N#Cc1ccccc1C#C/C=C\C#Cc1ccccc1N        GI50  2550 nM

# GI50 lookup, item O=C1c2ccccc2C(=O)c2c1ccc1c(=O)n(-c3ccccc3C(F)(F)F)nnc21 1880 nM

* * *

# System: SNB-19 CNS
# ASSAY_EXPLANATION: NCI tumour cell line growth inhibition, 48 h
OBSERVABLE: TGI

Use these answered entries as a reference point.
> print(dat)
                                   compound    result
1                   CCCCNC(=NCc1ccccc1)NC#N  > 100 µM
2  CCOC(=O)c1c(NC(=O)c2ccccc2)sc2c3c(ccc12)OCN(C)C3    3.1 µM

# evaluate next
Hi! What's the reported TGI for O=[N+]([O-])c1ccc(C2=NOC(c3ccc(Cl)cc3)N2C23CC4CC(CC(C4)C2)C3)cc1 (stereo not drawn) on SNB-19 CNS? > 100 µM

* * *

# Test system: NCI-H460 lung
# ASSAY_EXPLANATION: NCI tumour cell line growth inhibition, 48 h
OBSERVABLE: TGI

Use these answered entries as a reference point.
> print(dat)
                                   compound  observable    result
1             CCCCCCNC(=S)N/N=C(\C)c1ccccn1         TGI   8.81 µM
2           COc1cc(/C=N/c2ccccn2)cc(OC)c1OC         TGI  > 100 µM
3  CCCC(C)NC(=O)c1ccc(N(C)Cc2cnc3nc(N)nc(N)c3n2)cc1 (stereo not given)         TGI  > 100 µM
4  COc1cc(/C=C/C(=O)/C=C/c2cc3ccc(Cl)cc3n(Cc3ccccc3)c2=O)ccc1O         TGI   4.27 µM
5  CCOC(=O)CCC(NC(=O)c1ccc(N=Cc2nc3ccccc3nc2-c2ccccc2)cc1)C(=O)OCC (stereo not given)         TGI  > 100 µM

Hi! What's the reported TGI for Clc1ccc(OCc2nnc3n2N=C(c2ccc(Br)cc2)CS3)cc1 on NCI-H460 lung? 82 µM

Hi! What's the reported TGI for COc1ccc(Cl)cc1Nc1nc(C(F)(F)F)ccc1C(=O)N/N=C/c1cccnc1 on NCI-H460 lung? > 100 µM

Hi! What's the reported TGI for O=C(COc1ccc(OCC(=O)N2C(=O)CN(c3ccccc3)C2=S)cc1)N1C(=O)CN(c2ccccc2)C1=S on NCI-H460 lung? > 100 µM

Hi! What's the reported TGI for COC(=O)C1CC23C4=C(CCC41)CCC1CN4CC(C)C(CC(OC(C)=O)C12COC(C)=O)C43O (stereo not given) on NCI-H460 lung? > 100 µM

Hi! What's the reported TGI for CC(C)N(C(=O)C12C3C4C1C1C2C3C41I)C(C)C (stereo not given) on NCI-H460 lung? > 100 µM

Hi! What's the reported TGI for CSC1=C(C(=O)Nc2ccc(C)cc2)C(N)=NC1=O on NCI-H460 lung? > 100 µM

Hi! What's the reported TGI for COc1ccc(Cn2cc3c(c2)-c2oncc2CC3)cc1OC on NCI-H460 lung? 0.89 µM

Hi! What's the reported TGI for Cc1ccc(-c2nc3cc(Cl)c(Cl)cc3nc2C#N)cc1 on NCI-H460 lung? > 100 µM

Hi! What's the reported TGI for CN(C)Cc1ccc(C(C)(C)C)cc1-c1cc(C(C)(C)C)ccc1CN(C)C on NCI-H460 lung? > 100 µM

Hi! What's the reported TGI for CC1C(=O)c2cc3c(cc2CCN(C)Cc2c1ccc1c2OCO1)OCO3 (stereo not given) on NCI-H460 lung? > 75 µg/mL

Hi! What's the reported TGI for OCc1ccc(N2CCc3cc(F)ccc3C2)cc1Cl on NCI-H460 lung? 1.84 µM

Hi! What's the reported TGI for CC(NC1CCCC[C@H]1O)c1ccccc1 (stereo not given in full) on NCI-H460 lung? > 100 µM

Hi! What's the reported TGI for Cc1ccc(NC(=O)Nc2c(Cl)cccc2Cl)cn1 on NCI-H460 lung? 36.1 µM

Hi! What's the reported TGI for O=C(Nc1cccc(-n2cc(-c3ccncc3)c(-c3ccc(O)c(Cl)c3)n2)c1)c1cc(C(F)(F)F)cc(C(F)(F)F)c1 on NCI-H460 lung? > 50 µM

Hi! What's the reported TGI for Cc1cc(C)c2c(=O)n(CC(O)CN3CCN(CCOCCO)CC3)sc2n1 (stereo not given) on NCI-H460 lung? 39 µM

* * *

# System: NCI-H23 lung
# ASSAY_EXPLANATION: NCI tumour cell line growth inhibition, 48 h
OBSERVABLE: TGI

> print(dat)
                                   molecule    result
1     Nc1ncnc2c1ncn2-c1ccc([N+](=O)[O-])cn1  > 100 µM
2  CCCCCCCCCCCCCCCCCCOc1ccccc1CC(=O)OCC[N+](CC)(CC)CC   4.09 µM
3  O=C1/C(=C/c2[nH]ncc2-c2ccc(Cl)cc2)C(=O)N(c2ccccc2)C1c1ccccc1 (stereo unspecified)   28.8 µM
4  Oc1cc(CN2CCOCCOCCOCCOCC2)c(O)cc1CN1CCOCCOCCOCCOCC1  > 100 µM

# evaluate next
# TGI lookup, item COc1ccccc1-n1c(N)c2c(C)c(-c3ccccc3)[nH]c2nc1=S > 100 µM

Recorded values, source PubChem BioAssay (NCI).
